- system_under_test: APP-E2 (Homo sapiens)
- Construct: APP-E2 comprising Ser295-Asp500 (numbering according to APP695); hexa-histidine tag (C, cleaved yes); made in house; host or cells: E. coli BL21(DE3)pRIL
- Sequence (P05067 370-575): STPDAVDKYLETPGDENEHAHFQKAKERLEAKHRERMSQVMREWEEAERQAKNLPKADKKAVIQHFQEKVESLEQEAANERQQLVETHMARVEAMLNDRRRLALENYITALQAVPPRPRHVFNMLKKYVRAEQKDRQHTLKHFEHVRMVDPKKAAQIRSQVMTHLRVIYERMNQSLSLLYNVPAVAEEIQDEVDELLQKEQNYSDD
- test_description: Isothermal titration calorimetry (ITC) of metal binding to APP-E2
- test_conditions: ITC, 20 mM Hepes/NaOH pH 7.3, 150 mM NaCl; two sets of independent sites, strong site; read-out: KD1, Zn-APP-E2
measured_parameter: Kd (µM)
Response body: numeric value in µM, unit text excluded.

Challenge: Form field - read-out: Kd; system: APP-E2 (Homo sapiens); submitted item: `[Zn+2]`
Response given: 3.9
